What Population Membrane Permeable-Phenotype (%) was measured for each of the following?
System: HEK-293T
Assay: Multiplex assay against HEK293T
Type: toxicity, cell-based
Conditions: human, 24 h, 1 µM, compound concentration 1 uM, number of replicates 2
Output spec: scalar in %, unitless text.

**Q:** Which Population Membrane Permeable-Phenotype (%) is reported for this compound? Cc1cn(CCN2CCN(c3ccccc3-c3cc(C#N)cc(C(=O)NCCCN4CCCC4)c3)CC2)c2ccccc12
**A:** 3

**Q:** Which Population Membrane Permeable-Phenotype (%) is reported for this compound? COc1cc(C(N)=O)ccc1Nc1ncc2c(n1)N(CCC(C)C)[C@H](C)C(=O)N2C
**A:** 1

**Q:** Which Population Membrane Permeable-Phenotype (%) is reported for this compound? CC(C)N1CCN(Cc2cnc(-c3cc(-c4cccc5[nH]ccc45)cc4[nH]ncc34)o2)CC1
**A:** 2

**Q:** Which Population Membrane Permeable-Phenotype (%) is reported for this compound? CC(C)S(=O)(=O)c1ccccc1Nc1nc(N[C@@H]2CCCN(CCCCCCCNC(=O)COc3cccc4c3C(=O)N(C3CCC(=O)NC3=O)C4=O)C2)ncc1Cl (stereo partly drawn)
**A:** 1

**Q:** Which Population Membrane Permeable-Phenotype (%) is reported for this compound? CC(C)NC(=O)[C@H]1CCC[C@H]1Nc1nc(Nc2ccc(C(=O)N(C)C3CCN(C)CC3)cc2)ncc1Cl
**A:** 2

**Q:** Which Population Membrane Permeable-Phenotype (%) is reported for this compound? CC1=C(C)C(=O)C(C(CCCCCC(=O)O)c2ccccc2)=C(C)C1=O (stereo not drawn)
**A:** 1

**Q:** Which Population Membrane Permeable-Phenotype (%) is reported for this compound? COc1ccncc1C(=O)NC(=O)Nc1ccc(-c2ccccc2)c(C(F)(F)F)c1
**A:** 2

**Q:** Which Population Membrane Permeable-Phenotype (%) is reported for this compound? Cn1cc(-c2ccc(-c3cncc(Cl)c3N3CCC4(CCNC4=O)CC3)cc2)cn1
**A:** 3
